Reference source for all entries: patent US4920103A

System: Haemophilus influenzae C.L.
TEST_SUMMARY: MIC, standard agar-dilution assay, H. influenzae C.L.
Type: cell-based
Catalogue of compounds with associated MIC
MEASURE_NAME: MIC (µg/mL)

>>> observed_measurement("CCC1OC(=O)CC(O)C(C)C(OC2OC(C)C(O)C(N(C)C)C2O)C(CCOc2ccccc2)CC(C)C(=O)C=CC(C)=CC1COC1OC(C)C(NC)C(OC)C1OC (stereo not drawn) [Compound 31]")
32
>>> observed_measurement("CCC1OC(=O)CC(O)C(C)C(OC2OC(C)C(O)C(N(C)C)C2O)C(CCOc2ccccc2)CC(C)C(=O)C=CC(C)=CC1COC1OC(C)C(N)C(OC)C1OC (stereo not drawn) [Compound 21]")
32

* * *

# MIC per entry
Tested on: Streptococcus Group D X66
TEST_SUMMARY: MIC, standard agar-dilution assay, Streptococcus Group D X66
Assay type: cell-based
Method: The MIC's in Table II were determined by standard agar-dilution assays. The MIC's in Table III were obtained using conventional broth-dilution microtiter tests.
MEASURE_NAME: MIC

>>> observed_measurement("CCC1OC(=O)CC(O)C(C)C(OC2OC(C)C(O)C(N(C)C)C2O)C(CCOc2ccccc2)CC(C)C(=O)C=CC(C)=CC1COC1OC(C)C(NCc2ccccc2)C(OC)C1OC (stereo not shown) [Compound 47]")
"8 µg/mL"
>>> observed_measurement("CCC1OC(=O)CC(O)C(C)C(OC2OC(C)C(O)C(N(C)C)C2O)C(CCOc2ccccc2)CC(C)C(=O)C=CC(C)=CC1COC1OC(C)C(N)C(OC)C1OC (stereo not shown) [Compound 21]")
"4 µg/mL"
>>> observed_measurement("CCC1OC(=O)CC(O)C(C)C(OC2OC(C)C(OC(C)=O)C(N(C)C)C2OC(C)=O)C(CCOc2ccccc2)CC(C)C(=O)C=CC(C)=CC1COC1OC(C)CC(OC)C1OC (stereo not shown) [Compound 10]")
"2 µg/mL"
>>> observed_measurement("CCC1OC(=O)CC(O)C(C)C(OC2OC(C)C(OC(C)=O)C(N(C)C)C2OC(C)=O)C(CCOc2ccccc2)CC(C)C(=O)C=CC(C)=CC1COC1OC(C)C(N)C(OC)C1OC (stereo not shown) [Compound 20]")
"4 µg/mL"
>>> observed_measurement("CCC1OC(=O)CC(O)C(C)C(OC2OC(C)C(O)C(N(C)C)C2O)C(CCOc2ccccc2)CC(C)C(=O)C=CC(C)=CC1COC1OC(C)C(I)C(OC)C1OC (stereo not shown) [Compound 19]")
"8 µg/mL"
>>> observed_measurement("CCC1OC(=O)CC(O)C(C)C(OC2OC(C)C(O)C(N(C)C)C2O)C(CCOc2ccccc2)CC(C)C(=O)C=CC(C)=CC1COC1OC(C)C(OS(C)(=O)=O)C(OC)C1OC (stereo not shown) [Compound 15]")
"16 µg/mL"
>>> observed_measurement("CCC1OC(=O)CC(O)C(C)C(OC2OC(C)C(O)C(N(C)C)C2O)C(CCOc2ccccc2)CC(C)C(=O)C=CC(C)=CC1COC1OC(C)C(NC)C(OC)C1OC (stereo not shown) [Compound 31]")
"2 µg/mL"
>>> observed_measurement("CCC1OC(=O)CC(O)C(C)C(OC2OC(C)C(O)C(N(C)C)C2O)C(CCOc2ccccc2)CC(C)C(=O)C=CC(C)=CC1COC1OC(C)CC(OC)C1OC (stereo not shown) [Compound 11, 4\"-Deoxy-20-DH-20-O-phenyl-desmycosin]")
"2 µg/mL"
>>> observed_measurement("CCC1OC(=O)CC(O)C(C)C(OC2OC(C)C(O)C(N(C)C)C2O)C(CCOc2ccccc2)CC(C)C(=O)C=CC(C)=CC1COC1OC(C)CC(=O)C1OC (stereo not shown) [Compound 52]")
"2 µg/mL"
>>> observed_measurement("CCC1OC(=O)CC(O)C(C)C(OC2OC(C)C(O)C(N(C)C)C2O)C(CCOc2ccccc2)CC(C)C(=O)C=CC(C)=CC1COC1OC(C)C=C(OC)C1OC (stereo not shown) [Compound 54]")
"8 µg/mL"

* * *

Recorded MIC by entry
Test system: Staphylococcus aureus S13E
TEST_SUMMARY: MIC, standard agar-dilution assay, S. aureus S13E
Type: cell-based
Procedure: The MIC's in Table II were determined by standard agar-dilution assays. The MIC's in Table III were obtained using conventional broth-dilution microtiter tests.
MEASURE_NAME: MIC (µg/mL)

>>> observed_measurement("CCC1OC(=O)CC(O)C(C)C(OC2OC(C)C(O)C(N(C)C)C2O)C(CCOc2ccccc2)CC(C)C(=O)C=CC(C)=CC1COC1OC(C)C(n2cccc2)C(OC)C1OC (stereo not drawn)")
8
>>> observed_measurement("CCCN(CCC)C1C(C)OC(OCC2C=C(C)C=CC(=O)C(C)CC(CCOc3ccccc3)C(OC3OC(C)C(O)C(N(C)C)C3O)C(C)C(O)CC(=O)OC2CC)C(OC)C1OC (stereo not drawn)")
16
>>> observed_measurement("CCC1OC(=O)CC(O)C(C)C(OC2OC(C)C(O)C(N(C)C)C2O)C(CCOc2ccccc2)CC(C)C(=O)C=CC(C)=CC1COC1OC(C)C(N2CCCCC2)C(OC)C1OC (stereo not drawn)")
2
>>> observed_measurement("CCC1OC(=O)CC(O)C(C)C(OC2OC(C)C(OC(C)=O)C(N(C)C)C2OC(C)=O)C(CCOc2ccccc2)CC(C)C(=O)C=CC(C)=CC1COC1OC(C)C(N)C(OC)C1OC (stereo not drawn)")
0.5
>>> observed_measurement("CCC1OC(=O)CC(O)C(C)C(OC2OC(C)C(O)C(N(C)C)C2O)C(CCOc2ccccc2)CC(C)C(=O)C=CC(C)=CC1COC1OC(C)/C(=N\\OC)C(OC)C1OC (stereo not drawn)")
2
>>> observed_measurement("CCC1OC(=O)CC(O)C(C)C(OC2OC(C)C(O)C(N(C)C)C2O)C(CCOc2ccccc2)CC(C)C(=O)C=CC(C)=CC1COC1OC(C)C(I)C(OC)C1OC (stereo not drawn)")
8
>>> observed_measurement("CCC1OC(=O)CC(O)C(C)C(OC2OC(C)C(O)C(N(C)C)C2O)C(CCOc2ccccc2)CC(C)C(=O)C=CC(C)=CC1COC1OC(C)C(OS(=O)(=O)Cc2ccccc2)C(OC)C1OC (stereo not drawn)")
4
>>> observed_measurement("CCC1OC(=O)CC(O)C(C)C(OC2OC(C)C(O)C(N(C)C)C2O)C(CCOc2ccccc2)CC(C)C(=O)C=CC(C)=CC1COC1OC(C)C(OCCOC)C(OC)C1OC (stereo not drawn)")
2
>>> observed_measurement("CCC1OC(=O)CC(O)C(C)C(OC2OC(C)C(O)C(N(C)C)C2O)C(CCOc2ccccc2)CC(C)C(=O)C=CC(C)=CC1COC1OC(C)CC(=O)C1OC (stereo not drawn)")
0.5

* * *

System: Staphylococcus aureus S13E
TEST_SUMMARY: MIC, standard agar-dilution assay, S. aureus S13E
Type: cell-based
Experimental: The MIC's in Table II were determined by standard agar-dilution assays. The MIC's in Table III were obtained using conventional broth-dilution microtiter tests.
MEASURE_NAME: MIC (mg/L)

>>> observed_measurement("CCC1OC(=O)CC(O)C(C)C(OC2OC(C)C(O)C(N(C)C)C2O)C(CCOc2ccccc2)CC(C)C(=O)C=CC(C)=CC1COC1OC(C)/C(=N/OC)C(OC)C1OC (centres unmarked)")
1
>>> observed_measurement("CCC1OC(=O)CC(O)C(C)C(OC2OC(C)C(O)C(N(C)C)C2O)C(CCOc2ccccc2)CC(C)C(=O)C=CC(C)=CC1COC1OC(C)C=C(OC)C1OC (centres unmarked)")
1
>>> observed_measurement("CCC1OC(=O)CC(O)C(C)C(OC2OC(C)C(O)C(N(C)C)C2O)C(CCOc2ccccc2)CC(C)C(=O)C=CC(C)=CC1COC1OC(C)C(NC)C(OC)C1OC (centres unmarked)")
0.25
>>> observed_measurement("CCC1OC(=O)CC(O)C(C)C(OC2OC(C)C(O)C(N(C)C)C2O)C(CCOc2ccccc2)CC(C)C(=O)C=CC(C)=CC1COC1OC(C)C(NCC#N)C(OC)C1OC (centres unmarked)")
0.5
>>> observed_measurement("CCC1OC(=O)CC(O)C(C)C(OC2OC(C)C(O)C(N(C)C)C2O)C(CCOc2ccccc2)CC(C)C(=O)C=CC(C)=CC1COC1OC(C)C(OS(C)(=O)=O)C(OC)C1OC (centres unmarked)")
2
>>> observed_measurement("CCC1OC(=O)CC(O)C(C)C(OC2OC(C)C(O)C(N(C)C)C2O)C(CCOc2ccccc2)CC(C)C(=O)C=CC(C)=CC1COC1OC(C)CC(OC)C1OC (centres unmarked)")
0.25
>>> observed_measurement("CCC1OC(=O)CC(O)C(C)C(OC2OC(C)C(O)C(N(C)C)C2O)C(CCOc2ccccc2)CC(C)C(=O)C=CC(C)=CC1COC1OC(C)C(N)C(OC)C1OC (centres unmarked)")
0.25
>>> observed_measurement("CCC1OC(=O)CC(O)C(C)C(OC2OC(C)C(O)C(N(C)C)C2O)C(CCOc2ccccc2)CC(C)C(=O)C=CC(C)=CC1COC1OC(C)C(N=[N+]=[N-])C(OC)C1OC (centres unmarked)")
4
>>> observed_measurement("CCC1OC(=O)CC(O)C(C)C(OC2OC(C)C(OC(C)=O)C(N(C)C)C2OC(C)=O)C(CCOc2ccccc2)CC(C)C(=O)C=CC(C)=CC1COC1OC(C)C([n+]2ccccc2)C(OC)C1OC (centres unmarked)")
4
>>> observed_measurement("CCC1OC(=O)CC(O)C(C)C(OC2OC(C)C(O)C(N(C)C)C2O)C(CCOc2ccccc2)CC(C)C(=O)C=CC(C)=CC1COC1OC(C)C(OC)C(O)C1OC (centres unmarked)")
0.5
>>> observed_measurement("CCC1OC(=O)CC(O)C(C)C(OC2OC(C)C(OC(C)=O)C(N(C)C)C2OC(C)=O)C(CCOc2ccccc2)CC(C)C(=O)C=CC(C)=CC1COC1OC(C)CC(OC)C1OC (centres unmarked)")
0.5
>>> observed_measurement("CCC1OC(=O)CC(O)C(C)C(OC2OC(C)C(O)C(N(C)C)C2O)C(CCOc2ccccc2)CC(C)C(=O)C=CC(C)=CC1COC1OC(C)C(NC(C)=O)C(OC)C1OC (centres unmarked)")
4
>>> observed_measurement("CCC1OC(=O)CC(O)C(C)C(OC2OC(C)C(OC(C)=O)C(N(C)C)C2OC(C)=O)C(CCOc2ccccc2)CC(C)C(=O)C=CC(C)=CC1COC1OC(C)C(OS(=O)(=O)C(F)(F)F)C(OC)C1OC (centres unmarked)")
2
>>> observed_measurement("CCC1OC(=O)CC(O)C(C)C(OC2OC(C)C(O)C(N(C)C)C2O)C(CCOc2ccccc2)CC(C)C(=O)C=CC(C)=CC1COC1OC(C)C(=NO)C(OC)C1OC (centres unmarked)")
1
>>> observed_measurement("CCCNC1C(C)OC(OCC2C=C(C)C=CC(=O)C(C)CC(CCOc3ccccc3)C(OC3OC(C)C(O)C(N(C)C)C3O)C(C)C(O)CC(=O)OC2CC)C(OC)C1OC (centres unmarked)")
8
>>> observed_measurement("CCC1OC(=O)CC(O)C(C)C(OC2OC(C)C(O)C(N(C)C)C2O)C(CCOc2ccccc2)CC(C)C(=O)C=CC(C)=CC1COC1OC(C)C(NC(C)C)C(OC)C1OC (centres unmarked)")
16
>>> observed_measurement("CCC1OC(=O)CC(O)C(C)C(OC2OC(C)C(O)C(N(C)C)C2O)C(CCOc2ccccc2)CC(C)C(=O)C=CC(C)=CC1COC1OC(C)C(=O)C(OC)C1OC (centres unmarked)")
0.5
>>> observed_measurement("CCC1OC(=O)CC(O)C(C)C(OC2OC(C)C(O)C(N(C)C)C2O)C(CCOc2ccccc2)CC(C)C(=O)C=CC(C)=CC1COC1OC(C)C(NCc2ccccc2)C(OC)C1OC (centres unmarked)")
2
>>> observed_measurement("CCC1OC(=O)CC(O)C(C)C(OC2OC(C)C(O)C(N(C)C)C2O)C(CCOc2ccccc2)CC(C)C(=O)C=CC(C)=CC1COC1OC(C)C(N(C)C)C(OC)C1OC (centres unmarked)")
4
>>> observed_measurement("CCC1OC(=O)CC(O)C(C)C(OC2OC(C)C(O)C(N(C)C)C2O)C(CCOc2ccccc2)CC(C)C(=O)C=CC(C)=CC1COC1OC(C)C(N(C)CC#N)C(OC)C1OC (centres unmarked)")
2
